Entry source: patent US7598245B2

Ki, c-KIT (Homo sapiens, UniProt P10721): measured values

Below: 3 compounds and their reported Ki.
> print(dat)
                              record.smiles  recorded.result
1  CC(=O)N1[C@H](C)CN(c2cc(-n3cnc(Nc4ccc(N5CCOCC5)cc4)n3)ccn2)C[C@@H]1C     50 to 500 nM
2  c1ccc(Nc2ncn(-c3ccnc(N4CCCCCC4)c3)n2)cc1     50 to 500 nM
3     c1ccc(-n2cnc(Nc3ccc4c(c3)OCCO4)n2)cc1          < 50 nM

[in] Reported Ki for c-KIT (Homo sapiens, UniProt P10721), given CN(Cc1ccccc1)c1cc(-n2cnc(Nc3ccccc3)n2)ccn1 ?
[out] < 50 nM

[in] Reported Ki for c-KIT (Homo sapiens, UniProt P10721), given N#CCC(=O)N1CCCN(c2cc(-n3cnc(Nc4ccccc4)n3)ccn2)CC1 ?
[out] 50 to 500 nM

[in] Reported Ki for c-KIT (Homo sapiens, UniProt P10721), given COC(=O)Nc1ccc(Nc2ncn(-c3ccnc(N4C[C@@H](C)N(C(C)=O)[C@@H](C)C4)c3)n2)cc1 ?
[out] 50 to 500 nM

====

Ki, KDR (Homo sapiens): measured values

Below: 3 compounds and their reported Ki.
> print(dat)
                                   compound        study.target  recorded.result
1  CC(C)CCN(C)c1cc(-n2cnc(Nc3ccccc3)n2)ccn1  KDR (Homo sapiens)         < 0.1 µM
2  CC(C)CC(=O)N1CCCN(c2cc(-n3cnc(Nc4ccccc4)n3)ccn2)CC1  KDR (Homo sapiens)           > 1 µM
3  CC(=O)N1[C@H](C)CN(c2cc(-n3cnc(Nc4ccc(NC(=O)NC(C)C)cc4)n3)ccn2)C[C@@H]1C  KDR (Homo sapiens)         < 0.1 µM

[in] Reported Ki for KDR (Homo sapiens), given c1ccc(Nc2ncn(-c3ccnc(NC4CCCCC4)c3)n2)cc1 ?
[out] 0.1 to 1 µM

[in] Reported Ki for KDR (Homo sapiens), given CC(=O)N1[C@H](C)CN(c2cc(-n3cnc(Nc4ccc(NC(=O)C(F)(F)F)cc4)n3)ccn2)C[C@@H]1C ?
[out] < 0.1 µM

====

Target: human Src kinase (Homo sapiens, UniProt P12931)
Construct: 25 nM of recombinant human Src kinase
Sequence (P12931 whole entry): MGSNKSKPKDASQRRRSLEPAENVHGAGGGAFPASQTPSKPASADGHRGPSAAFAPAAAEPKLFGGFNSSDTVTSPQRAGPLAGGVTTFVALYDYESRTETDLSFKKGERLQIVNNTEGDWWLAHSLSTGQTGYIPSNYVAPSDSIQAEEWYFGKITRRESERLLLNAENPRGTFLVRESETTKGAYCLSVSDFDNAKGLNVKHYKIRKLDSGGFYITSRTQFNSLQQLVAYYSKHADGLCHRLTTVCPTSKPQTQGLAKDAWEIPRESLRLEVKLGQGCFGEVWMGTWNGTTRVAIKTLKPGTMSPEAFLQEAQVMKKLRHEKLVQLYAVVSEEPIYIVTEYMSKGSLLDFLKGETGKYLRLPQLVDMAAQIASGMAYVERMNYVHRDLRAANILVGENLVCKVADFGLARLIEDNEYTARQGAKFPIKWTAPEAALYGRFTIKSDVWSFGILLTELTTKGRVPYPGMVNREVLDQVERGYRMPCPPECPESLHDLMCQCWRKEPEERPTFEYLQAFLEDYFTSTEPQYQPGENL
Assay: Src inhibition assay B: spectrophotometric (uv-vis) coupled enzyme assay
Settings: 100 μM ATP
Recorded Ki for the following compounds

[in] Ki for OC[C@H]1CCCN(c2cc(-n3cnc(Nc4ccccc4)n3)ccn2)C1 [Compound I-65] ?
[out] < 500 nM

[in] Ki for CCOc1cccc(Nc2ncn(-c3ccccc3)n2)c1 [Compound I-45] ?
[out] < 500 nM

[in] Ki for CCCOC(=O)Nc1ccc(Nc2ncn(-c3ccnc(N4C[C@@H](C)N(C(C)=O)[C@@H](C)C4)c3)n2)cc1 [Compound I-88] ?
[out] < 500 nM

[in] Ki for c1ccc(-n2cnc(Nc3ccc4c(c3)OCCO4)n2)cc1 [Compound I-44] ?
[out] 500 to 1000 nM

[in] Ki for N#CCC(=O)N1CCCN(c2cc(-n3cnc(Nc4ccccc4)n3)ccn2)CC1 [Compound I-72] ?
[out] 500 to 1000 nM

[in] Ki for CN1C(C)(C)CC(Nc2cc(-n3cnc(Nc4ccccc4)n3)ccn2)CC1(C)C [Compound I-61] ?
[out] < 500 nM

[in] Ki for CC(=O)N1[C@H](C)CN(c2cc(-n3cnc(Nc4ccc(NC(=O)OC(C)C)cc4)n3)ccn2)C[C@@H]1C [Compound I-89] ?
[out] 500 to 1000 nM

[in] Ki for COCC(=O)N1CCCN(c2cc(-n3cnc(Nc4ccccc4)n3)ccn2)CC1 [Compound I-71] ?
[out] > 1000 nM

[in] Ki for CN(c1cc(-n2cnc(Nc3ccccc3)n2)ccn1)C1CCCCC1 [Compound I-133] ?
[out] > 1000 nM

[in] Ki for c1ccc(-n2cnc(Nc3ccnc(N4CCOCC4)c3)n2)cc1 [Compound I-105] ?
[out] < 500 nM

[in] Ki for CCNC(=O)Nc1ccc(Nc2ncn(-c3ccnc(N4C[C@@H](C)N(C(C)=O)[C@@H](C)C4)c3)n2)cc1 [Compound I-98] ?
[out] < 500 nM

====

Target: CDK-2/Cyclin A (Homo sapiens, UniProt P24941)
Construct: 25 nM CDK-2/Cyclin A
Assay: Inhibition of CDK-2, coupled enzyme assay
Conditions: 100 μM ATP, 30° C.
measure name: Ki

Below: 10 compounds and their reported Ki.
> print(dat)
                                    compound                              study.target  recorded.result
 1  c1ccc(Nc2ncn(-c3ccnc(N4CCCCC4)c3)n2)cc1 [Compound I-49]  CDK-2/Cyclin A (Homo sapiens, UniProt P24941)         < 0.5 µM
 2  COc1cc(Nc2ncn(-c3ccc(C#N)cc3)n2)cc(OC)c1OC [Compound I-43]  CDK-2/Cyclin A (Homo sapiens, UniProt P24941)      0.5 to 1 µM
 3  CN(CCO)c1cc(-n2cnc(Nc3ccccc3)n2)ccn1 [Compound I-51]  CDK-2/Cyclin A (Homo sapiens, UniProt P24941)         < 0.5 µM
 4  CCC(=O)N1CCCN(c2cc(-n3cnc(Nc4ccccc4)n3)ccn2)CC1 [Compound I-67]  CDK-2/Cyclin A (Homo sapiens, UniProt P24941)           > 1 µM
 5  CCNC(=O)Nc1ccc(Nc2ncn(-c3ccnc(N4C[C@@H](C)N(C(C)=O)[C@@H](C)C4)c3)n2)cc1 [Compound I-98]  CDK-2/Cyclin A (Homo sapiens, UniProt P24941)         < 0.5 µM
 6  c1ccc(-n2cnc(Nc3ccc(N4CCOCC4)nc3)n2)cc1 [Compound I-134]  CDK-2/Cyclin A (Homo sapiens, UniProt P24941)           > 1 µM
 7  CC(=O)N1[C@H](C)CN(c2cc(-n3cnc(Nc4ccc(NC(=O)NC(C)C)cc4)n3)ccn2)C[C@@H]1C [Compound I-100]  CDK-2/Cyclin A (Homo sapiens, UniProt P24941)         < 0.5 µM
 8  CC(=O)N1[C@H](C)CN(c2cc(-n3cnc(Nc4ccc(NC(=O)NC(C)(C)C)cc4)n3)ccn2)C[C@@H]1C [Compound I-101]  CDK-2/Cyclin A (Homo sapiens, UniProt P24941)      0.5 to 1 µM
 9  CCCN(CCO)c1cc(-n2cnc(Nc3ccccc3)n2)ccn1 [Compound I-58]  CDK-2/Cyclin A (Homo sapiens, UniProt P24941)         < 0.5 µM
10  CN(Cc1cccnc1)c1cc(-n2cnc(Nc3ccccc3)n2)ccn1 [Compound I-57]  CDK-2/Cyclin A (Homo sapiens, UniProt P24941)         < 0.5 µM

[in] Ki for CCOc1cccc(Nc2ncn(-c3ccccc3)n2)c1 [Compound I-45] ?
[out] > 1 µM

[in] Ki for CCN(CCO)c1cc(-n2cnc(Nc3ccccc3)n2)ccn1 [Compound I-54] ?
[out] < 0.5 µM

[in] Ki for O=C(CCc1ccccc1)Nc1cc(-n2cnc(Nc3ccccc3)n2)ccn1 [Compound I-95] ?
[out] 0.5 to 1 µM

[in] Ki for O=c1[nH]c2ccccc2n1C1CCN(c2cc(-n3cnc(Nc4ccccc4)n3)ccn2)CC1 [Compound I-63] ?
[out] > 1 µM

[in] Ki for CC(=O)N1[C@H](C)CN(c2cc(-n3cnc(Nc4ccc(NC(=O)OCC(C)C)cc4)n3)ccn2)C[C@@H]1C [Compound I-90] ?
[out] 0.5 to 1 µM

====

Target: CDK-2/Cyclin A (Homo sapiens, UniProt P24941)
Construct: 25 nM CDK-2/Cyclin A
Experiment: Inhibition of CDK-2, coupled enzyme assay
Conditions: 100 μM ATP, 30° C.
Procedure: Compounds are screened for their ability to inhibit CDK-2/Cyclin A using a standard coupled enzyme assay [Fox et al. Protein Sci. 1998, 7, 2249]. Reactions were carried out in 100 mM HEPES (pH 7.5), 10 mM MgCl2, 25 mM NaCl, 1 mM DTT and 1.5% DMSO. […] An assay stock buffer solution is prepared containing all of the reagents listed above, with the exception of CDK-2/Cyclin A, DTT and the test compound of interest. […] Ki values are determined according to standard methods.
pKi: −log10 of the molar value.
measure name: pKi

Below: 6 compounds and their reported pKi.
> print(dat)
                                   compound  measure.name  recorded.result
1  CC(=O)N1[C@H](C)CN(c2cc(-n3cnc(Nc4ccc(NC(=O)c5ccco5)cc4)n3)ccn2)C[C@@H]1C           pKi     6.00 to 6.30
2  CC(=O)N1[C@H](C)CN(c2cc(-n3cnc(Nc4ccc(N5CCOCC5)cc4)n3)ccn2)C[C@@H]1C           pKi           > 6.30
3  CC(=O)N1[C@H](C)CN(c2cc(-n3cnc(Nc4ccccc4)n3)ccn2)C[C@@H]1C           pKi           > 6.30
4       CC(C)Oc1cccc(Nc2ncn(-c3ccccc3)n2)c1           pKi           < 6.00
5  CC(=O)N1[C@H](C)CN(c2cc(-n3cnc(Nc4ccc(N5CCN(C(=O)OC(C)(C)C)CC5)cc4)n3)ccn2)C[C@@H]1C           pKi           > 6.30
6     COc1cc(Nc2ncn(-c3ccccc3)n2)cc(OC)c1OC           pKi           < 6.00

[in] pKi for CC(=O)N1[C@H](C)CN(c2cc(-n3cnc(Nc4ccc(NC(=O)N(C)C)cc4)n3)ccn2)C[C@@H]1C ?
[out] < 6.00

[in] pKi for CC(=O)N1[C@H](C)CN(c2cc(-n3cnc(Nc4ccc(N5CCN(S(=O)(=O)c6ccc(C)cc6)CC5)cc4)n3)ccn2)C[C@@H]1C ?
[out] 6.00 to 6.30

[in] pKi for COCCN(C)c1cc(-n2cnc(Nc3ccccc3)n2)ccn1 ?
[out] > 6.30
